Please respond with reported HRG-induced Akt activation (log2) for every item in the list.
system: MCF7; test: HRG-induced Akt activation (dPAkt = log2 pAkt/Akt HRG-stimulated minus log2 pAkt/Akt basal) (log2 ratio difference); higher = stronger HRG-induced Akt(T308) phosphorylation; conditions: miRNA mimic concentration 10 nM; time after transfection 72 h; heregulin 10 ng/ml; stimulation time 1 h
Answers are plain numbers.

For this sequence ( "CUUUCAGUCGGAUGUUUGCAGC" ), measured HRG-induced Akt activation (log2) is 1.75

For this sequence ( "CUAAUAGUAUCUACCACAAUAAA" ), measured HRG-induced Akt activation (log2) is 1.84

For this sequence ( "CAGCAGCAAUUCAUGUUUUGAA" ), measured HRG-induced Akt activation (log2) is 1.53

For this sequence ( "CACUGUAGGUGAUGGUGAGAGUGGGCA" ), measured HRG-induced Akt activation (log2) is 1.51

For this sequence ( "AGUUUUGCAUAGUUGCACUACA" ), measured HRG-induced Akt activation (log2) is 1.37

For this sequence ( "AGGAGGCAGCGCUCUCAGGAC" ), measured HRG-induced Akt activation (log2) is 1.54

For this sequence ( "CUAUACAAUCUAUUGCCUUCCC" ), measured HRG-induced Akt activation (log2) is 1.44

For this sequence ( "AUCGCUGCGGUUGCGAGCGCUGU" ), measured HRG-induced Akt activation (log2) is 1.63

Give HRG-induced Akt activation (log2) for each of the items listed below.
1. AAAACGGUGAGAUUUUGUUUU
2. UCAGUGCAUCACAGAACUUUGU
3. UGCUUCCUUUCAGAGGGU
4. GAAAGCGCUUCCCUUUGCUGGA
5. AUGCACCUGGGCAAGGAUUCUG
6. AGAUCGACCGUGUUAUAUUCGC
7. AAAAACUGAGACUACUUUUGCA

Ans:
1: 1.75; 2: 0.53; 3: 1.61; 4: 1.63; 5: 1.77; 6: 2.02; 7: 1.33

---

system: MCF7; experiment: HRG-induced Akt activation (dPAkt = log2 pAkt/Akt HRG-stimulated minus log2 pAkt/Akt basal) (log2 ratio difference); higher = stronger HRG-induced Akt(T308) phosphorylation; details: miRNA mimic concentration 10 nM; time after transfection 72 h; heregulin 10 ng/ml; stimulation time 1 h
Please respond with reported HRG-induced Akt activation (log2) for every item in the list.
Give bare numbers.

Here are 8 sequences together with their reported answers.
For this sequence ( "ACUCUUUCCCUGUUGCACUAC" ), measured HRG-induced Akt activation (log2) is 1.68

For this sequence ( "AAAACCGUCUAGUUACAGUUGU" ), measured HRG-induced Akt activation (log2) is 1.26

For this sequence ( "CAAAGUGCCUCCCUUUAGAGUG" ), measured HRG-induced Akt activation (log2) is 0.831

For this sequence ( "UGAGGUAGUAAGUUGUAUUGUU" ), measured HRG-induced Akt activation (log2) is 1.6

For this sequence ( "CUCUCACCACUGCCCUCCCACAG" ), measured HRG-induced Akt activation (log2) is 1.9

For this sequence ( "ACUUACAGACAAGAGCCUUGCUC" ), measured HRG-induced Akt activation (log2) is 1.68

For this sequence ( "AAAAGCUGGGUUGAGAGGGCAA" ), measured HRG-induced Akt activation (log2) is 1.61

For this sequence ( "UGAGGUAGUAGUUUGUACAGUU" ), measured HRG-induced Akt activation (log2) is 1.47

Give HRG-induced Akt activation (log2) for each of the items listed below.
1. GUGUUGAAACAAUCUCUACUG
2. CAACAAAUCACAGUCUGCCAUA
3. UUUGAGGCUACAGUGAGAUGUG
4. CCCGGAGCCAGGAUGCAGCUC
5. AAAGUGCAUCCUUUUAGAGGUU
6. UAAAUCCCAUGGUGCCUUCUCCU

Ans:
1. 1.53
2. 1.2
3. 2.06
4. 1.79
5. 0.411
6. 2.03
